Attribution: patent US5278150A

Reported pEC50 values for a set of compounds
Experimental target: A1 adenosine receptor (Cavia porcellus, UniProt P47745)
Sequence (P47745 1-326): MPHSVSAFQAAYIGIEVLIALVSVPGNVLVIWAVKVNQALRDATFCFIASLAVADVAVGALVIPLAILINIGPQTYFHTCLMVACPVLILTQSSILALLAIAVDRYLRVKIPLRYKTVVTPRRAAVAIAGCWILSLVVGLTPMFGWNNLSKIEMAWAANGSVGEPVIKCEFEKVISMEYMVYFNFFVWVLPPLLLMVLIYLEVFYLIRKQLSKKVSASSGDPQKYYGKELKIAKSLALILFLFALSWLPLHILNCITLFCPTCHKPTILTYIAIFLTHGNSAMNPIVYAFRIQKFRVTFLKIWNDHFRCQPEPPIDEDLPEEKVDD
Condition set: -LOG EC50 A1, BIOASSAY RESULTS table, A1
Kindly note that pEC50 refers to -log10 of the concentration in mol/L and answer with the value alone.

Nc1nc(NN=Cc2ccc3ccccc3c2)nc2c1ncn2[C@@H]1O[C@H](CO)[C@@H](O)[C@H]1O; 5.58
Nc1nc(NN=CCCCc2ccccc2)nc2c1ncn2[C@@H]1O[C@H](CO)[C@@H](O)[C@H]1O; 4.18
Nc1nc(NN=Cc2ccccc2)nc2c1ncn2[C@@H]1O[C@H](CO)[C@@H](O)[C@H]1O; 4.08
CC(=NNc1nc(N)c2ncn([C@@H]3O[C@H](CO)[C@@H](O)[C@H]3O)c2n1)c1ccc(F)cc1; 5.38
Nc1nc(NN=CCCCC2CCCCC2)nc2c1ncn2[C@@H]1O[C@H](CO)[C@@H](O)[C@H]1O; 4.18
Nc1nc(NN=CCCC2CCCCC2)nc2c1ncn2[C@@H]1O[C@H](CO)[C@@H](O)[C@H]1O; 5.01

Now for a further compound.
What measured pEC50 goes with "Nc1nc(NN=CC2CCCCC2)nc2c1ncn2[C@@H]1O[C@H](CO)[C@@H](O)[C@H]1O" ? 5.45

* * *

Reported Selectivity (SQPR/CF) values for a set of compounds
Test system: A2 adenosine receptor
Condition set: EC50-SQPR divided by EC50-CF; >1 indicates selectivity for A2 adenosine receptor

Solved entries (count: 2):
Nc1nc(NN=Cc2ccc(F)cc2)nc2c1ncn2[C@@H]1O[C@H](CO)[C@@H](O)[C@H]1O; 8,500
Nc1nc(NN=Cc2ccncc2)nc2c1ncn2[C@@H]1O[C@H](CO)[C@@H](O)[C@H]1O; 2,817

What measured Selectivity (SQPR/CF) goes with "Nc1nc(NN=Cc2ccccc2)nc2c1ncn2[C@@H]1O[C@H](CO)[C@@H](O)[C@H]1O" ? 43,347
